Where do these numbers come from? They come from paper PMC8268887.

Measured MIC, E. coli NMI 3898/15, listed per entry for reference.
system: E. coli NMI 3898/15; assay type: cell-based, Escherichia coli; conditions: NMI 3898/15, 20 h
The answer is to be given in µg/mL; state only the numeric part.

Example entries and their recorded answers appear below.
compound	MIC, E. coli NMI 3898/15 / µg/mL
NCCCC[C@H](NC(=O)CCN(Cc1ccc(F)cc1)C(=O)[C@H](CCCCN)NC(=O)CCN(Cc1ccc(F)cc1)C(=O)[C@H](CCCCN)NC(=O)COCCNC(=O)CCN(Cc1ccc(F)cc1)C(=O)[C@H](CCCCN)NC(=O)CCN(Cc1ccc(F)cc1)C(=O)[C@H](CCCCN)NC(=O)CCN(Cc1ccc(F)cc1)C(=O)[C@@H](N)CCCCN)C(=O)N(CCC(N)=O)Cc1ccc(F)cc1 [Compound 6, H-[X]3-sPEG1-[X]3-NH2]	8
NCCCC[C@H](NC(=O)CCN(Cc1ccc(F)cc1)C(=O)[C@H](CCCCN)NC(=O)CCN(Cc1ccc(F)cc1)C(=O)[C@H](CCCCN)NC(=O)CCN(Cc1ccc(F)cc1)C(=O)[C@H](CCCCN)NC(=O)CCN(Cc1ccc(F)cc1)C(=O)[C@H](CCCCN)NC(=O)CCN(Cc1ccc(F)cc1)C(=O)[C@H](CCCCN)NC(=O)COCCOCCN)C(=O)N(CCC(N)=O)Cc1ccc(F)cc1 [Compound 2, H-sPEG2-[X]6-NH2]	16

Lookup result for NCCCC[C@H](NC(=O)CCN(Cc1ccc(F)cc1)C(=O)[C@H](CCCCN)NC(=O)COCCOCCOCCNC(=O)CCN(Cc1ccc(F)cc1)C(=O)[C@H](CCCCN)NC(=O)CCN(Cc1ccc(F)cc1)C(=O)[C@H](CCCCN)NC(=O)COCCOCCOCCNC(=O)CCN(Cc1ccc(F)cc1)C(=O)[C@H](CCCCN)NC(=O)CCN(Cc1ccc(F)cc1)C(=O)[C@@H](N)CCCCN)C(=O)N(CCC(N)=O)Cc1ccc(F)cc1 [Compound 17, H-[X]2-sPEG3-[X]2-sPEG3-[X]2-NH2] ; measured MIC, E. coli NMI 3898/15: 32

###

Measured % MeCN at Elution, Supelco Discovery, listed per entry for reference.
test: Hydrophobicity by retention in analytical RP-HPLC (% MeCN at peak elution); format: physicochemical; conditions: Supelco Discovery BIO Wide pore C18 column; gradient 0→60% B during 15 min
The answer is to be given in % MeCN; state only the numeric part.

compound	display.unit	% MeCN at Elution, Supelco Discovery
NCCCC[C@H](NC(=O)CCN(Cc1ccc(F)cc1)C(=O)[C@H](CCCCN)NC(=O)CCN(Cc1ccc(F)cc1)C(=O)[C@H](CCCCN)NC(=O)CCN(Cc1ccc(F)cc1)C(=O)[C@H](CCCCN)NC(=O)CCN(Cc1ccc(F)cc1)C(=O)[C@H](CCCCN)NC(=O)CCN(Cc1ccc(F)cc1)C(=O)[C@H](CCCCN)NC(=O)CCOCCOCCOCCOCCN)C(=O)N(CCC(N)=O)Cc1ccc(F)cc1 [Compound 3, H-sPEG4-[X]6-NH2]	% MeCN	42.6

Lookup result for NCCCC[C@H](NC(=O)CCN(Cc1ccc(F)cc1)C(=O)[C@H](CCCCN)NC(=O)CCN(Cc1ccc(F)cc1)C(=O)[C@H](CCCCN)NC(=O)COCCOCCOCCNC(=O)CCN(Cc1ccc(F)cc1)C(=O)[C@H](CCCCN)NC(=O)CCN(Cc1ccc(F)cc1)C(=O)[C@H](CCCCN)NC(=O)CCN(Cc1ccc(F)cc1)C(=O)[C@@H](N)CCCCN)C(=O)N(CCC(N)=O)Cc1ccc(F)cc1 [Compound 8, H-[X]3-sPEG3-[X]3-NH2] ; measured % MeCN at Elution, Supelco Discovery: 41.9

###

Measured MIC, EF, listed per entry for reference.
test system: E. faecalis ATCC 29212; assay type: cell-based; settings: ATCC 29212, 20 h

Example entries and their recorded answers appear below.
compound	MIC, EF
NCCCC[C@H](NC(=O)CCN(Cc1ccc(F)cc1)C(=O)[C@H](CCCCN)NC(=O)COCCNC(=O)CCN(Cc1ccc(F)cc1)C(=O)[C@H](CCCCN)NC(=O)CCN(Cc1ccc(F)cc1)C(=O)[C@H](CCCCN)NC(=O)COCCNC(=O)CCN(Cc1ccc(F)cc1)C(=O)[C@H](CCCCN)NC(=O)CCN(Cc1ccc(F)cc1)C(=O)[C@@H](N)CCCCN)C(=O)N(CCC(N)=O)Cc1ccc(F)cc1 [Compound 15, H-[X]2-sPEG1-[X]2-sPEG1-[X]2-NH2]	>64 µg/mL
NCCCC[C@H](NC(=O)CCN(Cc1ccc(F)cc1)C(=O)[C@H](CCCCN)NC(=O)COCCOCCNC(=O)CCN(Cc1ccc(F)cc1)C(=O)[C@H](CCCCN)NC(=O)CCN(Cc1ccc(F)cc1)C(=O)[C@H](CCCCN)NC(=O)COCCOCCNC(=O)CCN(Cc1ccc(F)cc1)C(=O)[C@H](CCCCN)NC(=O)CCN(Cc1ccc(F)cc1)C(=O)[C@@H](N)CCCCN)C(=O)N(CCC(N)=O)Cc1ccc(F)cc1 [Compound 16, H-[X]2-sPEG2-[X]2-sPEG2-[X]2-NH2]	>64 µg/mL
NCCCC[C@H](NC(=O)CCN(Cc1ccc(F)cc1)C(=O)[C@H](CCCCN)NC(=O)CCN(Cc1ccc(F)cc1)C(=O)[C@H](CCCCN)NC(=O)COCCN)C(=O)N(CCC(=O)NCCOCC(=O)N[C@@H](CCCCN)C(=O)N(CCC(=O)N[C@@H](CCCCN)C(=O)N(CCC(=O)N[C@@H](CCCCN)C(=O)N(CCC(=O)NCCOCC(N)=O)Cc1ccc(F)cc1)Cc1ccc(F)cc1)Cc1ccc(F)cc1)Cc1ccc(F)cc1 [Compound 11, H-sPEG1-[X]3-sPEG1-[X]3-sPEG1-NH2]	>64 µg/mL
NCCCC[C@H](NC(=O)CCN(Cc1ccc(F)cc1)C(=O)[C@H](CCCCN)NC(=O)CCN(Cc1ccc(F)cc1)C(=O)[C@H](CCCCN)NC(=O)COCCOCCOCCNC(=O)CCN(Cc1ccc(F)cc1)C(=O)[C@H](CCCCN)NC(=O)CCN(Cc1ccc(F)cc1)C(=O)[C@H](CCCCN)NC(=O)CCN(Cc1ccc(F)cc1)C(=O)[C@@H](N)CCCCN)C(=O)N(CCC(N)=O)Cc1ccc(F)cc1 [Compound 8, H-[X]3-sPEG3-[X]3-NH2]	>64 µg/mL

Then this compound:
E. faecalis ATCC 29212 MIC, EF of NCCCC[C@H](NC(=O)CCN(Cc1ccc(F)cc1)C(=O)[C@H](CCCCN)NC(=O)CCN(Cc1ccc(F)cc1)C(=O)[C@H](CCCCN)NC(=O)CCN(Cc1ccc(F)cc1)C(=O)[C@H](CCCCN)NC(=O)CCN(Cc1ccc(F)cc1)C(=O)[C@H](CCCCN)NC(=O)CCN(Cc1ccc(F)cc1)C(=O)[C@H](CCCCN)NC(=O)COCCOCCN)C(=O)N(CCC(=O)NCCOCCOCC(N)=O)Cc1ccc(F)cc1 [Compound 4, H-sPEG2-[X]6-sPEG2-NH2] is >64 µg/mL

###

Measured % MeCN at Elution, Luna Omega, listed per entry for reference.
Assay: Hydrophobicity by retention in analytical RP-HPLC (% MeCN at peak elution)
Type: physicochemical
Details: Phenomenex Luna Omega Polar C18 column; gradient 0→60% B during 15 min
Experimental: For each peptide/β-peptoid hybrid oligomer, the retention time in RP-HPLC was measured on four different columns (details shown in Table 2): Phenomenex Luna C18(2) column (recommended for hydrophobic compounds [49]), Phenomenex Luna Omega Polar C18 column (recommended for both very polar and non-polar compounds [50]) as well as Phenomenex Aeris Peptide XB-C18 [51] and Sigma-Aldrich Supelco Discovery BIO Wide pore C18 [52] columns, which both are recommended for analysis of peptides. […]
The answer is to be given in % MeCN; state only the numeric part.

Example entries and their recorded answers appear below.
compound	display.unit	% MeCN at Elution, Luna Omega
NCCCC[C@H](NC(=O)CCN(Cc1ccc(F)cc1)C(=O)[C@H](CCCCN)NC(=O)CCN(Cc1ccc(F)cc1)C(=O)[C@H](CCCCN)NC(=O)COCCOCCOCCN)C(=O)N(CCC(=O)NCCOCCOCCOCC(=O)N[C@@H](CCCCN)C(=O)N(CCC(=O)N[C@@H](CCCCN)C(=O)N(CCC(=O)N[C@@H](CCCCN)C(=O)N(CCC(=O)NCCOCCOCCOCC(N)=O)Cc1ccc(F)cc1)Cc1ccc(F)cc1)Cc1ccc(F)cc1)Cc1ccc(F)cc1 [Compound 13, H-sPEG3-[X]3-sPEG3-[X]3-sPEG3-NH2]	% MeCN	42.8
NCCCC[C@H](NC(=O)CCN(Cc1ccc(F)cc1)C(=O)[C@H](CCCCN)NC(=O)CCN(Cc1ccc(F)cc1)C(=O)[C@H](CCCCN)NC(=O)COCCOCCNC(=O)CCN(Cc1ccc(F)cc1)C(=O)[C@H](CCCCN)NC(=O)CCN(Cc1ccc(F)cc1)C(=O)[C@H](CCCCN)NC(=O)CCN(Cc1ccc(F)cc1)C(=O)[C@@H](N)CCCCN)C(=O)N(CCC(N)=O)Cc1ccc(F)cc1 [Compound 7, H-[X]3-sPEG2-[X]3-NH2]	% MeCN	41.8
NCCCC[C@H](NC(=O)CCN(Cc1ccc(F)cc1)C(=O)[C@H](CCCCN)NC(=O)COCCNC(=O)CCN(Cc1ccc(F)cc1)C(=O)[C@H](CCCCN)NC(=O)CCN(Cc1ccc(F)cc1)C(=O)[C@H](CCCCN)NC(=O)COCCNC(=O)CCN(Cc1ccc(F)cc1)C(=O)[C@H](CCCCN)NC(=O)CCN(Cc1ccc(F)cc1)C(=O)[C@@H](N)CCCCN)C(=O)N(CCC(N)=O)Cc1ccc(F)cc1 [Compound 15, H-[X]2-sPEG1-[X]2-sPEG1-[X]2-NH2]	% MeCN	41.4

Lookup result for NCCCC[C@H](NC(=O)CCN(Cc1ccc(F)cc1)C(=O)[C@H](CCCCN)NC(=O)CCN(Cc1ccc(F)cc1)C(=O)[C@H](CCCCN)NC(=O)CCN(Cc1ccc(F)cc1)C(=O)[C@H](CCCCN)NC(=O)CCN(Cc1ccc(F)cc1)C(=O)[C@H](CCCCN)NC(=O)CCN(Cc1ccc(F)cc1)C(=O)[C@H](CCCCN)NC(=O)COCCOCCN)C(=O)N(CCC(=O)NCCOCCOCC(N)=O)Cc1ccc(F)cc1 [Compound 4, H-sPEG2-[X]6-sPEG2-NH2] ; measured % MeCN at Elution, Luna Omega: 42.1

Lookup result for NCCCC[C@H](NC(=O)CCN(Cc1ccc(F)cc1)C(=O)[C@H](CCCCN)NC(=O)CCN(Cc1ccc(F)cc1)C(=O)[C@H](CCCCN)NC(=O)CCOCCOCCOCCOCCN)C(=O)N(CCC(=O)NCCOCCOCCOCCOCCC(=O)N[C@@H](CCCCN)C(=O)N(CCC(=O)N[C@@H](CCCCN)C(=O)N(CCC(=O)N[C@@H](CCCCN)C(=O)N(CCC(=O)NCCOCCOCCOCCOCCC(N)=O)Cc1ccc(F)cc1)Cc1ccc(F)cc1)Cc1ccc(F)cc1)Cc1ccc(F)cc1 [Compound 14, H-sPEG4-[X]3-sPEG4-[X]3-sPEG4-NH2] ; measured % MeCN at Elution, Luna Omega: 43.5

Lookup result for NCCCC[C@H](NC(=O)CCN(Cc1ccc(F)cc1)C(=O)[C@H](CCCCN)NC(=O)CCN(Cc1ccc(F)cc1)C(=O)[C@H](CCCCN)NC(=O)CCN(Cc1ccc(F)cc1)C(=O)[C@H](CCCCN)NC(=O)CCN(Cc1ccc(F)cc1)C(=O)[C@H](CCCCN)NC(=O)CCN(Cc1ccc(F)cc1)C(=O)[C@H](CCCCN)NC(=O)CCOCCOCCOCCOCCN)C(=O)N(CCC(=O)NCCOCCOCCOCCOCCC(N)=O)Cc1ccc(F)cc1 [Compound 5, H-sPEG4-[X]6-sPEG4-NH2] ; measured % MeCN at Elution, Luna Omega: 43.2
